Tested on: Wolbachia pipientis
Assay: Anti-Wolbachia Cell-Based Screen
Assay type: functional
Parameters: scale not given: in the data most compounds retested in dose-response had high values
Conditions: 5 µM
Hit rate of the full screen: of about 48,000 compounds, about 13,000 (27%) showed an effect of 50% or more. Some of the results follow.
measured metric: Percent Effect (%)
Note: unit % is implicit; provide only the numeric part.

CN1CCCc2cc(CNC(=O)c3cc[n+]([O-])cc3)ccc21 yielded Percent Effect of 106.3

Cc1nc(CNC(=O)Nc2ccc3c(c2)CCCN3C)sc1C yielded Percent Effect of 18.83

O=C(CCc1cn[nH]c1)N1C[C@@H](CN2CCOCC2)C[C@H](CO)C1 yielded Percent Effect of 10.13

CNC(=O)[C@@H]1CC[C@@H]2[C@@H](CCN2Cc2cn(C)c3ccccc23)O1.O=C(O)C(F)(F)F yielded Percent Effect of 12.94

COc1cccc(-c2n[nH]c3c2CN(C(=O)c2cccc(=O)[nH]2)CC3)c1 yielded Percent Effect of -3.168

CCn1nc(CC(C)C)cc1C(=O)N1CCC(n2cnnc2)CC1 yielded Percent Effect of 19.79

Cc1cnn(CC2CCCN2CC(=O)N(C)Cc2ccc(C)o2)c1 (configuration not stated) yielded Percent Effect of 15.94

CCc1ccccc1OCC(=O)Nc1ccnc(OCCN(C)C)c1 yielded Percent Effect of 4.07

O=C(c1cc(C2CC2)on1)N1CCC(Oc2ncccc2Br)CC1 yielded Percent Effect of 12.65

CC(C)N1CCc2ncn(C)c2C1C(=O)NCCN1CCCC1 (configuration not stated) yielded Percent Effect of -5.495

Cc1cccc(NCc2ncc(C(C)(C)C)o2)c1 yielded Percent Effect of -14.59

CCc1nc(C)sc1CN1CC[C@@](O)(C2CC2)[C@H](C)C1 yielded Percent Effect of 90.8

COc1cccc(C(O)CN2CCN(C(=O)CCC(C)C)CC2)c1 (configuration not stated) yielded Percent Effect of -9.64

CN(C)C(=O)COc1ccccc1CN1CCOC2(CCCC2)C1 yielded Percent Effect of 35.78

CN1CCCc2cc(CNC(=O)c3ccncc3)ccc21 yielded Percent Effect of 7.884

O=C(NCc1ccccc1F)NCC(O)c1cccc(F)c1 (configuration not stated) yielded Percent Effect of 109.5

CC(C)Cc1cc(C(=O)N2CCC(C(=O)N3CCOCC3)CC2)on1 yielded Percent Effect of -1.733

CCn1c(C2CCCN(Cc3cccc4cnccc34)C2)nn(C)c1=O (configuration not stated) yielded Percent Effect of 3.036

CN1CCCc2cc(CNC(=O)c3ccc(-n4cnnc4)cc3)ccc21 yielded Percent Effect of 119.3

COCCN1CCN(CC(O)c2cc(OC)ccc2OC)CC1 (configuration not stated) yielded Percent Effect of 7.391

CCc1nc(C)sc1CN1CC[C@@](O)(C2CCOCC2)[C@H](C)C1 yielded Percent Effect of 107.2

Cc1nc(CN2CCN(C(=O)c3cc(C4CC4)on3)CC2)cs1 yielded Percent Effect of -4.93

CN(C)C(=O)C1(C)CN(Cc2cn(C)c3ccc(F)cc23)CCO1 (configuration not stated) yielded Percent Effect of 142.1

O=C(NCCc1ccccc1F)NCC(O)c1cccc(F)c1 (configuration not stated) yielded Percent Effect of 91.24
